- System: barnyardgrass (Echinochloa crus-galli)
- PROTOCOL TEXT: Test A pre-/postemergence: barnyardgrass
- Format: in vivo
- ASSAY SETUP: Postemergence, 1000 g ai/ha; visual rating on 0 to 100 scale (0 no effect, 100 complete control), approximately ten days

| COMPOUND | Barnyardgrass plant response rating |
| --- | --- |
| CCc1nn(-c2ccc(C(F)(F)F)cc2)nc1Cn1cnc(C(F)(F)F)n1 [Compound 130] | 50 |
| FC(F)(F)c1ccc(-n2nc(Br)c(Cc3cccc(C(F)(F)F)c3)n2)nc1 [Compound 105] | 10 |
| Cc1nn(-c2ccc(C(F)(F)F)cn2)nc1Oc1cccc(C(F)(F)F)c1 [Compound 109] | 90 |
| Cc1nn(-c2ccc(C(F)(F)F)cc2)nc1Cn1cnc(C(F)(F)F)c1 [Compound 96] | 40 |

----------
- Test system: winter wheat (Triticum aestivum)
- PROTOCOL TEXT: Test C pre-/postemergence: winter wheat
- Type: in vivo
- ASSAY SETUP: Preemergence, 250 g ai/ha; scale 0 to 100, 0 no effect, 100 complete control
Each entry gets not satisfied if its Plant response rating, Wheat stays under 10, and satisfied if its Plant response rating, Wheat is 10 or above.

| COMPOUND | CLASS ASSIGNMENT |
| --- | --- |
| CCc1nn(-c2ccc(C(F)(F)F)cc2)nc1Oc1ccnc(C(F)(F)F)c1 [Compound 169] | satisfied |
| CCOc1nn(-c2ccc(C(F)(F)F)cc2)nc1Cc1ccnc(C(F)(F)F)c1 [Compound 164] | not satisfied |
| CCc1nn(-c2ccc(F)cc2)nc1Cc1ccnc(C(F)(F)F)c1 [Compound 154] | satisfied |
| CCOc1nn(-c2ccc(F)cc2)nc1Cc1ccnc(C(F)(F)F)c1 [Compound 196] | satisfied |
| Cc1nn(-c2ccc(C(F)(F)F)cn2)nc1Cc1cccc(C(F)(F)F)c1 [Compound 106] | not satisfied |
| CCOc1nn(-c2ccc(Cl)cc2)nc1Cc1ccnc(C(F)(F)F)c1 [Compound 188] | satisfied |
| Cc1nn(-c2ccc(F)c(C(F)(F)F)c2)nc1Cc1ccnc(C(F)(F)F)c1 [Compound 156] | satisfied |

----------
- System: corn (Zea mays)
- PROTOCOL TEXT: Test C pre-/postemergence: corn
- Format: in vivo
- ASSAY SETUP: Preemergence, 31 g ai/ha; scale 0 (no effect) to 100 (complete control)

| COMPOUND STRUCTURE STRING | Plant response rating, Corn |
| --- | --- |
| CCCc1nn(-c2ccc(F)cc2F)nc1Oc1ccnc(C(F)(F)F)c1 | 5 |
| CCc1nn(-c2ccc(C(F)(F)F)c(F)c2)nc1Oc1ccnc(C(F)(F)F)c1 | 15 |
| CCCc1nn(-c2ccc(F)cc2)nc1Oc1ccnc(C(F)(F)F)c1 | 5 |
| CCCc1nn(-c2ccc(C(F)(F)F)cc2)nc1Oc1ccnc(C(F)(F)F)c1 | 5 |

----------
# reported Plant response rating, Wheat; entries follow
- System: wheat (Triticum aestivum)
- PROTOCOL TEXT: Test A pre-/postemergence: wheat
- Type: in vivo
- ASSAY SETUP: Preemergence, 500 g ai/ha; 0 to 100 scale (0 no effect, 100 complete control)
PROPERTY NAME: Plant response rating, Wheat

| COMPOUND | SYSTEM NAME | RESULT VALUE |
| --- | --- | --- |
| FCc1nn(-c2ccc(F)cc2)nc1Oc1ccnc(C(F)(F)F)c1 [Compound 160] | wheat (Triticum aestivum) | 50 |
| CCCCc1nn(-c2ccc(C(F)(F)F)cc2)nc1Oc1ccnc(C(F)(F)F)c1 [Compound 184] | wheat (Triticum aestivum) | 0 |
| Cc1nn(-c2ccc(C(F)(F)F)cc2)nc1Oc1ccnc(C(F)(F)F)c1 [Compound 120] | wheat (Triticum aestivum) | 20 |
| Cc1nn(-c2ccc(F)c(F)c2)nc1Cc1ccnc(C(F)F)c1 [Compound 136] | wheat (Triticum aestivum) | 10 |
| CCCc1nn(-c2ccc(F)cc2)nc1Oc1ccnc(C(F)(F)F)c1 [Compound 168] | wheat (Triticum aestivum) | 60 |
| CCOc1nn(-c2ccc(F)cc2)nc1C(=O)c1ccnc(C(F)(F)F)c1 [Compound 177] | wheat (Triticum aestivum) | 0 |
